Study system: TCR Vβ17 on T cells of PBMCs
Sequence (A0A075B6N1 22-114): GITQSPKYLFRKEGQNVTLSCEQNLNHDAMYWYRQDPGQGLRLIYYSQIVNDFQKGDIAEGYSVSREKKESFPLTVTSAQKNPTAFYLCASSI
Test description: cell-based or functional assay
Metric name: Proliferation (EC50, ug/ml)

Given the binder 20A9A9 (antibody, V domains shown) VH: EVQLQESGPGLVQPSQSLSITCTVSGFSLTSYGVHWVRQSPGKGLEWLGIIWSAGGTDYNAAFISRLSISKDNSKSQIFFKLNSLHADDTAIYFCARGSFYDYGRLDYWGQGTTLTVSS VL: DIVMTQSHRFMSTSVGDRVSITCKASQDVSTAVAWYQQKPGQSPKLLIYSSSYRYTGVPDRFTGSGSGTDFTFTISSVQAEDLAVYYCQQHYGTPYTFGGGTKLEIQ , what is its reported Proliferation (EC50, ug/ml)? > 5 µg/mL
